- method.notes: in vivo
- assay.setup: nude, mouse, plasma, iv
measure.name: clearance

CC[C@]1(O)C[C@H]2CN(CCc3c([nH]c4ccccc34)[C@@](C(=O)OC)(c3cc4c(cc3OC)N(C=O)[C@H]3[C@@](O)(C(=O)OC)[C@H](OC(C)=O)[C@]5(CC)C=CCN6CC[C@]43[C@@H]65)C2)C1 0.273 mL/min

Exam item: What value of clearance has been reported for the following compound? CC[C@@]1(O)C(=O)OCc2c1cc1n(c2=O)Cc2cc3c(CN(C)C)c(O)ccc3nc2-1
Marked response: 1.28 mL/min

====

# solubility per entry
- method.notes: Physicochemical properties of VCR and TPT
- assay.setup: pH 6, aqueous buffer
Answer by giving the amount and then stating its unit.

molecule	measure.name	test.result
CC[C@@]1(O)C(=O)OCc2c1cc1n(c2=O)Cc2cc3c(CN(C)C)c(O)ccc3nc2-1 [Topotecan (TPT), Topotecan]	solubility	3600 µM

// next item, solubility requested
Exam item: What value of solubility has been reported for the following molecule? CC[C@]1(O)C[C@H]2CN(CCc3c([nH]c4ccccc34)[C@@](C(=O)OC)(c3cc4c(cc3OC)N(C=O)[C@H]3[C@@](O)(C(=O)OC)[C@H](OC(C)=O)[C@]5(CC)C=CCN6CC[C@]43[C@@H]65)C2)C1 [Vincristine (VCR), Vincristine]
Marked response: 300 µM

====

# pKa per entry
- method.notes: Physicochemical properties of VCR and TPT
Write the number on its own, no unit after it.

CC[C@@]1(O)C(=O)OCc2c1cc1n(c2=O)Cc2cc3c(CN(C)C)c(O)ccc3nc2-1 7.65

// next item, pKa requested
Exam item: What value of pKa has been reported for the following compound? CC[C@]1(O)C[C@H]2CN(CCc3c([nH]c4ccccc34)[C@@](C(=O)OC)(c3cc4c(cc3OC)N(C=O)[C@H]3[C@@](O)(C(=O)OC)[C@H](OC(C)=O)[C@]5(CC)C=CCN6CC[C@]43[C@@H]65)C2)C1
Marked response: 7.64

====

- method.notes: Physicochemical properties of VCR and TPT
- assay.setup: pH 8
- Source text: The need to develop one liposome that includes two drugs at a specific predefined mole ratio required optimization of the loading conditions and “crosstalk” with the drugs. For this, physiochemical characterization of the two drugs is required.
measure.name: logD
Write the number on its own, no unit after it.

Exam item: What value of logD has been reported for the following compound? CC[C@]1(O)C[C@H]2CN(CCc3c([nH]c4ccccc34)[C@@](C(=O)OC)(c3cc4c(cc3OC)N(C=O)[C@H]3[C@@](O)(C(=O)OC)[C@H](OC(C)=O)[C@]5(CC)C=CCN6CC[C@]43[C@@H]65)C2)C1
Marked response: 2.81

====

- method.notes: Maximum tolerated dose (MTD)
- Set-up: species or system mice
- assay.setup: mouse, in vivo; ≦15% body weight loss nadir lasting ≦2 days
measure.name: MTD (mg/kg)
Give just the numeric value; mg/kg need not be written.

Exam item: What value of MTD has been reported for the following compound? CC[C@]1(O)C[C@H]2CN(CCc3c([nH]c4ccccc34)[C@@](C(=O)OC)(c3cc4c(cc3OC)N(C=O)[C@H]3[C@@](O)(C(=O)OC)[C@H](OC(C)=O)[C@]5(CC)C=CCN6CC[C@]43[C@@H]65)C2)C1 [Vincristine (VCR), Vincristine]
Marked response: 1.5
